The values you see were collected from patent US20260256136A1.

# TEST_SUMMARY: Storage test of aldehyde mixture containing 4-hydroxy-TEMPO with additive (Example 4)
# Type: physicochemical
# STATED_CONDITIONS: after 55° C. 14 days without cap; before test 8.41, without additive 6.64
MEASUREMENT_NAME: 16:Ald

CC1(C)CC(=O)CC(C)(C)N1 [2,2,6,6-tetramethyl-4-piperidone]	6.95
Cc1nnc(S)s1 [5-Methyl-1,3,4-thiadiazole-2-thiol]	8.04
Nc1nnc(S)s1 [5-Amino-1,3,4-Thiadiazole-2-thiol]	7.78
SC1=NCCS1 [2-thiazoline-2-thiol]	8.08
CC1(C)CC(O)CC(C)(C)N1[O] [Additive 4-OH-TEMPO]	7.60
[Na+].[O-][n+]1ccccc1[S-] [Sodium pyrithione]	8.29
Sc1nc2ccccc2[nH]1 [2-mercapto-Benzimidazole]	6.97
Cn1ccnc1S [2-mercapto-1-methylimidazole]	8.22
